- target entity: Protein translocase subunit SecA (Escherichia coli (strain K12))
- experiment description: Assay to Identify E. coli SecA ATPase Inhibitors
- Format: functional
- Set-up: scale not given: direction of the effect not stated beside the values
- condition notes: 30 µM
Measured potencies and affinities stand elsewhere.
readout: Percent Effect (%)
State just the number; it will be interpreted in %.

For reference, reported Percent Effect for CC(C)COCC(NC(=O)c1cccnc1)c1ccco1 (stereo not drawn) stands at -5.15

For reference, reported Percent Effect for `CCN(CC)C(=O)c1nnn(-c2ccc(C)cc2)c1C1CC1` stands at -2.41

For reference, reported Percent Effect for `CN(Cc1ccco1)C(=O)[C@H]1CSCN1C(=O)OC(C)(C)C` stands at -4.45

For reference, reported Percent Effect for `COCCN(C)C(=O)Cn1cccc(OC)c1=O` stands at -0.736

For reference, reported Percent Effect for Cc1nccc(C2CN(Cc3cc[nH]n3)CCO2)n1 (stereo not drawn) stands at -1.51

For reference, reported Percent Effect for CC(C)Cc1noc(CN2CCOC(Cn3cncn3)C2)n1 (stereo not drawn) stands at -1.12

For reference, reported Percent Effect for `CCOc1cc(C)nc(N2CCN(C(=O)CC)CC2)n1` stands at -4.4

For reference, reported Percent Effect for `CCCNC(=O)CSc1nnc2[nH]c(=O)cc(CC)n12` stands at -1.19

For reference, reported Percent Effect for `Cn1cc(CCC(=O)N2CCN(Cc3ccncc3)CC2)cn1` stands at -7.43

For reference, reported Percent Effect for c1csc(-c2nc(CN3CCOC(Cn4cncn4)C3)cs2)c1 (stereo not drawn) stands at -4.12

For reference, reported Percent Effect for `CCCS(=O)(=O)N1CCO[C@H]2[C@H](OCc3ccccn3)CC[C@@H]21` stands at -9.04

For reference, reported Percent Effect for Cc1cnn(CCNCC(O)COc2ccc(C#N)cc2)c1 (stereo not drawn) stands at -4.77

For reference, reported Percent Effect for Cc1cnn(C2CN(CC(O)c3ccc4c(c3)OCCO4)C2)c1 (stereo not drawn) stands at -0.511
